Recorded values, source PubChem BioAssay (NCI).

Listed compounds paired with reported growth
System: MCF7 breast
experiment: NCI-60 one-dose screen, 48 h (100 = growth as untreated, 0 = no growth, -100 = all killed)
recorded_conditions: 10 µM unless noted
About 83,000 compounds went through this panel and 20% of them were active in at least one assay; those are over-represented in the sample as a whole.
Numbers only here, please. The scale is %.

Take a look at these entries with their results.
Prompt line: Please state recorded growth (tested on MCF7 breast) of ClCc1ccc(-c2ccc(Cn3cnc4nc(Cl)nc(Cl)c43)cc2)cc1
Response line: -42.4

Prompt line: Please state recorded growth (tested on MCF7 breast) of Cc1cc(Nc2ncnc3ccc(NC4=NC(C)(C)CO4)cc23)ccc1Oc1ccn2ncnc2c1
Response line: 21.4

Prompt line: Please state recorded growth (tested on MCF7 breast) of CNc1ncc2cc(-c3cc(NC(=O)NCCC(C)(C)C)c(F)cc3C)c(C)nc2n1
Response line: 45.7

Prompt line: Please state recorded growth (tested on MCF7 breast) of Cc1nn(-c2nc3ccccc3[nH]2)c2c1C(c1ccc(O)cc1)CC(=O)N2 (stereo not given)
Response line: 109

Read the next record carefully.
Prompt line: Please state recorded growth (tested on MCF7 breast) of Cn1ncc(Cl)c1-c1cc(C(=O)N[C@H](CN)Cc2cccc(F)c2)sc1Cl
Response line: -11.7
